Record form. Attribute: Pre-emerge phytotoxicity rating, crop damage RICE. Fill in for each entry.
test system: upland rice (Oryza sp., var. Tebonnet, RICE); assay: Pre-emerge test, crop safety; type: in vivo; settings: 250 g ai/ha; rating scale 0-100, 14 days after application

Field: example entries. Status: answers known.
CCCCOC(=O)C(Cl)Cc1c(OC)c(Cl)cc(F)c1-n1c(=O)cc(C(F)(F)F)n(C)c1=O (single isomer, unassigned) [14-8] ... 0
CCCCCOC(=O)C(C)(Cl)Cc1c(OC)c(Cl)cc(F)c1-n1c(=O)cc(C(F)(F)F)n(C)c1=O (stereo not shown) ... 80
CCCCCOC(=O)C(Cl)Cc1c(OC)c(Cl)cc(F)c1-n1c(=O)cc(C(F)(F)F)n(C)c1=O (single isomer, unassigned) [14-10] ... 30

Next item in the queue.
Lookup: Given COc1c(Cl)cc(F)c(-n2c(=O)cc(C(F)(F)F)n(C)c2=O)c1CC(Cl)C(=O)OCCC#N (stereo not shown) , report its Pre-emerge phytotoxicity rating, crop damage RICE on upland rice (Oryza sp., var. Tebonnet, RICE).
Found: 20

----------
system: field corn (Zea mays L., var. Dekalb 535, CORN); assay: Pre-emerge test, crop safety; assay type: in vivo; details: crop damage, pre-emerge, rate 63 g ai/ha, phytotoxicity rating 0-100 at 14 days after application
Kindly state Pre-emerge Herbicidal Activity CORN for each of the entries shown.
Give bare numbers.

C#CCOc1c(Cl)cc(Cl)c(-n2nnn(CCCF)c2=O)c1N [Compound 5-15] ... 0
COc1c(Cl)cc(F)c(-n2c(=O)n3n(c2=O)CCCC3)c1NC(=O)c1ccc(F)cc1F [9-16] ... 0
Cc1c(Cl)cc(F)c(-n2c(=O)cc(C(F)(F)F)n(C)c2=O)c1NC(=O)OCc1cccc([N+](=O)[O-])c1 [4-67] ... 5

Batch of 2 compounds: report Pre-emerge Herbicidal Activity CORN for each.
1. COc1c(Cl)cc(F)c(-n2nnn(CCCF)c2=O)c1N [Compound 5-3]
2. O=C(Nc1cc(Cl)ccc1-n1c(=O)n2n(c1=S)CCCC2)c1ccc2ccccc2c1 [9-14]

Found:
0
0

----------
tested on: field corn (Zea mays L., var. Dekalb 535, CORN); experiment: Post-emerge test, crop safety; type: in vivo; details: post-emerge, 63 g ai/ha, 14 days after application, rating scale 0-100
Label yes when phytotoxicity rating CORN (crop damage) is at or above 5; anything below gets no.

COc1c(Cl)cc(F)c(-n2c(=O)cc(C(F)(F)F)n(C)c2=O)c1NC(=O)OCc1c(F)cccc1F ... yes
COc1c(Cl)cc(F)c(-n2c(=O)cc(C(F)(F)F)n(C)c2=O)c1NC(=O)NCc1ccccc1 ... yes
COc1c(Cl)cc(F)c(-n2c(=O)cc(C(F)(F)F)n(C)c2=O)c1NC(=O)OCc1ccc(F)c(F)c1 ... yes
COc1c(Cl)cc(F)c(-n2c(=O)cc(C(F)(F)F)n(C)c2=O)c1NC(=O)OCc1ccc2ccccc2c1 ... no
Cn1c(C(F)(F)F)cc(=O)n(-c2c(F)cc(Cl)c(Oc3ncccc3[N+](=O)[O-])c2NC(=O)c2ccc3ccccc3c2)c1=O ... yes

Now consider a different compound.
Lookup: # check: phytotoxicity rating CORN (crop damage) of COc1c(Cl)cc(F)c(-n2c(=O)cc(C(F)(F)F)n(C)c2=O)c1NC(=O)C1CC1 is greater than or equal to 5
Found: no

----------
tested on: field corn (Zea mays L., var. Dekalb 535, CORN); assay: Pre-emerge test, crop safety; assay type: in vivo; settings: pre-emerge, 250 g ai/ha, 14 days after application, scale 0-100
recorded.metric: phytotoxicity rating CORN (crop damage)
Answers are plain numbers.

Sample answers from the record:
CCOC(=O)C(C)SCC(=O)Nc1c(OC)c(Cl)cc(F)c1-n1c(=O)cc(C(F)(F)F)n(C)c1=O (stereo not drawn) ... 0
COc1c(Cl)cc(F)c(-n2c(=O)cc(C(F)(F)F)n(C)c2=O)c1NC(=O)C=Cc1ccccc1[N+](=O)[O-] ... 5
Cn1c(C(F)(F)F)cc(=O)n(-c2ccc(Cl)cc2NC(=O)C=Cc2ccccc2)c1=O ... 10
Cn1c(C(F)(F)F)cc(=O)n(-c2ccc(C(F)(F)F)cc2NC(=O)c2ccc3ccccc3c2)c1=O ... 20

Dear colleague, could you send me phytotoxicity rating CORN (crop damage) for each of the items below? Thanks.
1. COc1c(C#N)cc(F)c(-n2c(=O)cc(C(F)(F)F)n(C)c2=O)c1NC(=O)C=Cc1ccccc1
2. C=Cc1ccc(C(=O)Nc2c(OC)c(Br)cc(F)c2-n2c(=O)cc(C(F)(F)F)n(C)c2=O)cc1
3. COc1c(Cl)cc(F)c(-n2c(=O)cc(C(F)(F)F)n(C)c2=O)c1NC(=O)c1c(C)cccc1C

Found:
1. 10
2. 10
3. 0

----------
Consider the following molecules; for each one, report its Pre-emerge Herbicidal Activity AMARE.
test system: redroot pigweed (Amaranthus retroflexus, AMARE); assay: Pre-emerge test, greenhouse herbicide activity screening; format: in vivo; conditions: pre-emerge, rate 250 g ai/ha, phytotoxicity rating 0-100 at 14 days after application
Answers are plain numbers.

Check out these entries, answers already filled in.
Cc1ccc(COC(=O)Nc2c(C)c(Cl)cc(F)c2-n2c(=O)cc(C(F)(F)F)n(C)c2=O)cc1 ... 100
Nc1c(OC2CCCC2)c(Cl)cc(F)c1N1C(=O)C2=C(CCCC2)C1=O ... 95
Cc1c(Cl)cc(F)c(-n2c(=O)cc(C(F)(F)F)n(C)c2=O)c1NC(=O)OCCc1ccccc1 ... 100

Could you report Pre-emerge Herbicidal Activity AMARE for every entry in the following list?
1. COc1cccc(OC)c1OC(=O)Nc1c(C)c(Cl)cc(F)c1-n1c(=O)cc(C(F)(F)F)n(C)c1=O
2. O=C(Nc1cc(Cl)ccc1-n1c(=O)n2n(c1=O)CCCC2)c1ccc2ccccc2c1
3. O=C(Nc1cc(Cl)ccc1-n1c(=O)n2n(c1=S)CCCC2)c1ccc2ccccc2c1
4. Cc1c(Cl)cc(F)c(-n2c(=O)cc(C(F)(F)F)n(C)c2=O)c1NC(=O)OCc1ccc(Cl)cc1Cl

Found:
[100, 100, 65, 100]

----------
tested on: ivyleaf morningglory (Ipomoea hederacea, IPOHE); test: Post-emerge test, greenhouse herbicide activity screening; assay type: in vivo; settings: Rate 63 g ai/ha; rating scale 0-100 (0 no damage, 100 complete death); 14 days after application
Please respond with reported Post-emerge Herbicidal Activity, phytotoxicity rating IPOHE for every item in the list.

C#CCOC(=O)C(Cl)Cc1c(OC)c(Cl)cc(F)c1-n1c(=O)cc(C(F)(F)F)n(C)c1=O (single isomer, unassigned) [14-19] ... 30
CCOCCOC(=O)C(Cl)Cc1c(OC)c(Cl)cc(F)c1-n1c(=O)cc(C(F)(F)F)n(C)c1=O (centres unmarked) ... 20
COCCOC(=O)C(C)(Cl)Cc1c(OC)c(Cl)cc(F)c1-n1c(=O)cc(C(F)(F)F)n(C)c1=O (centres unmarked) ... 80

Can you give me Post-emerge Herbicidal Activity, phytotoxicity rating IPOHE for all of these, one by one?
1. COc1c(Cl)cc(F)c(-n2c(=O)cc(C(F)(F)F)n(C)c2=O)c1CC(Cl)C(=O)OCCC(C)C (single isomer, unassigned)
2. CCCCOC(=O)C(C)(Cl)Cc1c(OC)c(Cl)cc(F)c1-n1c(=O)cc(C(F)(F)F)n(C)c1=O (centres unmarked)
3. CCCCCCOC(=O)C(Cl)Cc1c(OC)c(Cl)cc(F)c1-n1c(=O)cc(C(F)(F)F)n(C)c1=O (single isomer, unassigned)
4. C#CCOC(=O)C(Cl)Cc1c(OC)c(Cl)cc(F)c1-n1c(=O)cc(C(F)(F)F)n(C)c1=O (single isomer, unassigned) [14-20]
5. C#CCOC(=O)C(C)(Cl)Cc1c(OC)c(Cl)cc(F)c1-n1c(=O)cc(C(F)(F)F)n(C)c1=O (centres unmarked)

Found:
1. 40
2. 30
3. 40
4. 50
5. 50

----------
tested on: redroot pigweed (Amaranthus retroflexus, AMARE); test: Pre-emerge test, greenhouse herbicide activity screening; assay type: in vivo; conditions: pre-emerge, 250 g ai/ha, 14 days after application, scale 0-100
recorded.metric: phytotoxicity rating AMARE
Give bare numbers.

COc1c(Cl)cc(F)c(-n2c(=O)cc(C(F)(F)F)n(N)c2=O)c1NC(=O)C=Cc1ccccc1 ... 100
CCCSCC(=O)Nc1c(OC)c(Cl)cc(F)c1-n1c(=O)cc(C(F)(F)F)n(C)c1=O ... 100
C=Cc1ccc(C(=O)N(C(=O)c2ccc(C=C)cc2)c2c(OC)c(Br)cc(F)c2-n2c(=O)cc(C(F)(F)F)n(C)c2=O)cc1 ... 30
Cn1c(C(F)(F)F)cc(=O)n(-c2ccc(Cl)cc2NC(=O)c2ccc3ccccc3c2)c1=O ... 95
Cn1c(C(F)(F)F)cc(=O)n(-c2ccc(C#N)cc2NC(=O)C=Cc2ccccc2)c1=O ... 100

Lookup: Look up and state reported phytotoxicity rating AMARE for COc1c(C#N)cc(F)c(-n2c(=O)cc(C(F)(F)F)n(C)c2=O)c1NC(=O)c1ccc2ccccc2c1
Found: 100

Sourced from patent US6355799B1
